Entry source: PubChem BioAssay (EPA / NIEHS)

# PROTOCOL DESCRIPTION: CCTE_Shafer_MEA_dev_mutual_information_norm: CCTE's Neural Network Formation Assay for Mutual Information Normalization, Shafer Lab (AID 2284091)
Activity calls are given as the source filed them. Rule for the calls: active = hit-call score of the fitted dose curve at least 0.9, where 1 is the maximum; inactive = score below 0.9.
Outcome codes: yes (1) = active, no (0) = inactive

- COMPOUND: "CC1CCCC1.[C-]#[O+].[C-]#[O+].[C-]#[O+].[Mn]"
  CLASS: "no (0)"
- COMPOUND: "CC1(C)C(C=C(Cl)c2ccc(Cl)cc2)C1C(=O)OC(C#N)c1ccc(F)c(Oc2ccccc2)c1 (stereo unspecified)"
  CLASS: "yes (1)"
- COMPOUND: "NCCc1cc(O)c(O)cc1O"
  CLASS: "yes (1)"
- COMPOUND: "CP(=O)(O)CC[C@H](N)C(=O)O"
  CLASS: "no (0)"
- COMPOUND: "CC(C)CCCCCCCOP(=O)(Oc1ccccc1)Oc1ccccc1"
  CLASS: "no (0)"
- COMPOUND: "CCC1(c2ccccc2)C(=O)NC(=O)NC1=O"
  CLASS: "no (0)"
- COMPOUND: "COC(=O)[C@H]1[C@@H](OC(=O)c2ccccc2)C[C@@H]2CC[C@H]1N2C"
  CLASS: "no (0)"
- COMPOUND: "CC1(C)[C@H](C=C(Cl)Cl)[C@H]1C(=O)OCc1c(F)c(F)cc(F)c1F"
  CLASS: "yes (1)"
- COMPOUND: "CCCCC(CC)COC(=O)c1cc(Br)c(Br)c(Br)c1Br (stereo unspecified)"
  CLASS: "no (0)"
- COMPOUND: "CC(=O)[O-].CC(=O)[O-].O.O.O.[Pb+2]"
  CLASS: "no (0)"
- COMPOUND: "CC1(C)[C@H](C(=O)O[C@H](C#N)c2cccc(Oc3ccccc3)c2)[C@@H]1C=C(Br)Br"
  CLASS: "yes (1)"
